Taken from FireProtDB (doi:10.1111/j.1432-1033.1995.tb20713.x).

For each entry below, report its Tm value.
B1: Adenylate kinase, P07170 (parent)
chain: MSSSESIRMVLIGPPGAGKGTQAPNLQERFHAAHLATGDMLRSQIAKGTQLGLEAKKIMDQGGLVSDDIMVNMIKDELTNNPACKNGFILDGFPRTIPQAEKLDQMLKEQGTPLEKAIELKVDDELLVARITGRLIHPASGRSYHKIFNPPKEDMKDDVTGEALVQRSDDNADALKKRLAAYHAQTEPIVDFYKKTGIWAGVDASQPPATVWADILNKLGKD

# Variants of: B1
# measurement parameters: Saccharomyces cerevisiae (strain ATCC 204508 / S288c); pH 7.5; Thermal; Fluorescence; MOPS-NaOH 30 mM; reversible: yes; structure 2AKY; whole UniProt chain shown
Numbers only, in °C.

# alteration, assay value
records = [
    ("V10I", 46.2),
    ("N171D", 47.1),
    ("T79H", 46.6),
]

Query variant follows.
Ask | Given `I215F` , state its recorded Tm.
Reply | 40
